# inhibition at 30 µM listing for each entry below
Test system: HeLa cells
ASSAY_COMMENT: MTT antiproliferative assay, HeLa
Assay type: cell-based
TEST_CONDITIONS: Homo sapiens, 30 μM, 72 h, read-out: Growth inhibition (%) ± SEM
EXPERIMENTAL_READOUT: inhibition at 30 µM (%)

# CHEMICAL_STRING, EXPERIMENTAL_READOUT, DISPLAY_UNIT, LIMIT_OPERATOR, ENDPOINT_VALUE
rows = [
    ("COC(=O)[C@]1(C)CCC[C@@]2(C)[C@@H]3CC[C@@]4(CN=[N+]=[N-])C[C@]3(CC[C@@H]21)C[C@H]4O", "inhibition at 30 µM", "%", "<", 20),
    ("COC(=O)[C@]1(C)CCC[C@@]2(C)[C@@H]3CC[C@@]4(CO)C[C@]3(CC[C@@H]21)C[C@H]4N[C@H](C)c1ccc2ccccc2c1", "inhibition at 30 µM", "%", "=", 93.5),
    ("CC[C@@H](NC[C@@]12CC[C@@H]3[C@@](CC[C@H]4[C@@]3(C)CCC[C@@]4(C)C(=O)OC)(C[C@H]1O)C2)c1ccccc1", "inhibition at 30 µM", "%", "=", 96.6),
    ("COC(=O)[C@]1(C)CCC[C@@]2(C)[C@@H]3CC[C@@]4(CNCc5ccc(OC)cc5)C[C@]3(CC[C@@H]21)C[C@H]4O", "inhibition at 30 µM", "%", "=", 97.2),
]

Data origin, for the record: paper PMC10745768
